# target.or.system: T1, mouse serum albumin (mouse, UniProt P07724 25-608)
# T1 construct: bought protein, amine-coupled to a CM5 chip; also called Mouse SA
# protocol.summary: SPR (Biacore 8K), albumin immobilised, 25 C, 1:1 kinetics
measured.property: kon (M⁻¹ s⁻¹)

>  <binder>
INS Analog 26 (other, single-chain insulin B-L2-A-L1-VHH fusion; also called Ex. 26) FVSQHLCGSHLVEALRLVCGERGFFYTPKTGGGGGGGIVEQCCTSICSLYQLENYCGPGPQPGPQPGPQPGPQPGPQPGPQPGPQPGPQEVQLLESGGGLVQPGGSLRLSCAASGRYIDETAVAWFRQAPGKEREFVAGIGGGVDITYYADSVKGRFTISRDNSKNTLYLQMNSLRPEDTAVYYCAARPGRPLITSKVADLYPYWGQGTLVTVSSPP

>  <measured.property>
kon

>  <value>
200000

$$$$
